target: hKCNQ2/3 (Homo sapiens, UniProt O43525+O43526); construct: expressed in transfected cells; host or cells: CHO-K1; test: Fluorescence assay using a voltage sensitive dye (fluorimetry); assay type: cell-based; conditions: CHO-K1, 10 μM; relative to retigabine = 100%; CHO-K1 cells expressing KCNQ2/3; Table 3; read-out: Fluorimetry % Efficacy @ 10 μM (reti-gabine = 100%)
metricName: Emax at 10 µM (%)

These recorded examples may help you get a feel for the data.
Cc1ccccc1C1c2ccsc2CCN1C(=O)CCC(=O)NCc1cccc(C(F)(F)F)c1 (stereo not drawn)	148
O=C(CCC(=O)N1CCc2sccc2C1c1ccccc1)NCc1cccc(C(F)(F)F)c1 (stereo not drawn)	165

a: O=C(CCC(=O)N1CCc2sccc2C1c1cccs1)NCc1cccc(C(F)(F)F)c1 (stereo not drawn)
b: Cc1cccc(C2c3ccsc3CCN2C(=O)CCC(=O)Nc2ccc3cnn(C)c3c2)c1 (stereo not drawn)
### Prompt I'm curious, which of these has a smaller Emax at 10 µM number: a or b ? Returns: label corresponding to the selected item.
### Response b
